Target: GST-RIPK1 (recombinant GST-RIPK1 kinase domain (residues 1-327)) (Homo sapiens)
Construct: recombinant GST-RIPK1 kinase domain (residues 1-327) enzyme produced from baculovirus-transfected Sf21 cells
Sequence (Q13546 1-327): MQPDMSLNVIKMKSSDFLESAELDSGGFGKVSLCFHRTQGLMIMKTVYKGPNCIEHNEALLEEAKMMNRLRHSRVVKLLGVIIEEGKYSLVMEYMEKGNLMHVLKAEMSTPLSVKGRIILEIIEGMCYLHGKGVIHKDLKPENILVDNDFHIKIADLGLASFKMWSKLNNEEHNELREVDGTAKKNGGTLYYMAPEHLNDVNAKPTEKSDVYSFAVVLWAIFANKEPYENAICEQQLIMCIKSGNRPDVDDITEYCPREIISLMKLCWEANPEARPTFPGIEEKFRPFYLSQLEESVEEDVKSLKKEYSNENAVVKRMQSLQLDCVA
Assay: RIPK1-ADP-Glo Enzymatic Assay
Conditions: ten-point titration, top compound concentration of 100000 nM; 25 nM GST-RIPK1, 300 μM ATP, 3 μM dephosphorylated-MBP; 30 min pre-incubation, 150 min reaction
Measured Property: EC50 (µM)

a. O=C1N2[C@@H](CC[C@H]2c2cnccn2)OC12CC(OCc1ccnc3nncn13)C2 (stereo partly shown)
b. N#Cc1cc(O[C@H]2C[C@@]3(C2)O[C@@H]2CC[C@@H](c4ccc(F)cn4)N2C3=O)ncn1
[in] Returns: the label, a or b , whose recorded EC50 is the lower number. Please identify the chosen entry by its label.
[out] b
